Test system: HCT116
Experiment: cell viability (CellTiter-Glo) relative to plate median (fraction of plate median); higher = more viable cells
Conditions: 5 µM; treatment time 24 h; reporter: TCF4/Wnt
Output condition met for records whose cell viability is lower than 1, condition not met for records at or above 1.

COMPOUND: O=C(O)c1cn(-c2ccc(F)cc2)c2cc(N3CCNCC3)c(F)cc2c1=O
ASSAY_SYSTEM: HCT116
LABEL_CLASS: condition met
//
COMPOUND: CCN(CC)CCCC(C)Nc1ccnc2cc(Cl)ccc12 (centres undefined)
ASSAY_SYSTEM: HCT116
LABEL_CLASS: condition not met
//
COMPOUND: CC1=C(/C=C/C(C)=C/C=C/C(C)=C/C=C/C=C(C)/C=C/C=C(C)/C=C/C2=C(C)C(=O)CCC2(C)C)C(C)(C)CCC1=O [CANTHAXANTHIN (euglenanone)]
ASSAY_SYSTEM: HCT116
LABEL_CLASS: condition met
//
COMPOUND: C=CCCCCCCCCC(=O)O
ASSAY_SYSTEM: HCT116
LABEL_CLASS: condition not met
//
COMPOUND: CC(=O)O[C@H]1CC[C@]2(C)C3=CC(=O)[C@@]4(C)C(C[C@@H]5OC6(OCC(C)CC6Br)[C@@H](C)[C@@H]54)C3CC[C@H]2C1 (some centres undefined)
ASSAY_SYSTEM: HCT116
LABEL_CLASS: condition not met
//
COMPOUND: Oc1c(I)cc(Cl)c2cccnc12
ASSAY_SYSTEM: HCT116
LABEL_CLASS: condition met
//
COMPOUND: Cc1cc(C(C)(C)C)cc(C)c1CC1=NCCN1
ASSAY_SYSTEM: HCT116
LABEL_CLASS: condition not met
//
COMPOUND: CCC[C@@H]1C[C@@H](C(=O)N[C@@H]([C@H]2O[C@H](SC)[C@H](O)[C@@H](O)[C@H]2O)[C@@H](C)O)N(C)C1
ASSAY_SYSTEM: HCT116
LABEL_CLASS: condition not met

###

Test system: DLD1
Assay: cell viability (CellTiter-Glo) relative to plate median (fraction of plate median); higher = more viable cells
Conditions: 5 µM; treatment time 24 h; reporter: 7TFP

COMPOUND: COc1c(CC(=O)c2cc3c(cc2O)OC(C)(C)C(O)C3)ccc2c1C=CC(C)(C)O2 (stereo unspecified)
cell viability: 1.02
--
COMPOUND: CC(C)(Oc1ccc(CCNC(=O)c2ccc(Cl)cc2)cc1)C(=O)O
cell viability: 1.05
--
COMPOUND: CC(=O)NCCc1ccccc1 [N-Acetyl-phenylethylamine]
cell viability: 1.04
--
COMPOUND: CC(=O)N[C@@H](Cc1c[nH]c2ccccc12)C(N)=O
cell viability: 1.07
--
COMPOUND: CC1(C)S[C@@H]2[C@H](N3C(=O)[C@@H](c4ccccc4)NC3(C)C)C(=O)N2[C@H]1C(=O)O
cell viability: 1.05
--
COMPOUND: CC[C@@]1(O)C(=O)OCc2c1cc1n(c2=O)Cc2cc3cc(O)ccc3nc2-1
cell viability: 1.05
--
COMPOUND: CC1CCC(C(C)C)C(O)C1 (stereo unspecified)
cell viability: 1.05
--
COMPOUND: COc1ccc2c(c1)OC/C(=C/c1ccc(O)c(O)c1)C2=O
cell viability: 0.99
--
COMPOUND: CCN(CC)CCNC(=O)c1ccc(N)cc1
cell viability: 1
--
COMPOUND: O=C1OC2(c3ccc(O)cc3Oc3cc(O)ccc32)c2ccccc21
cell viability: 1.01
--
COMPOUND: CC1(C)CC23C(=O)CCC(O)C2(C)CCC13 (stereo unspecified)
cell viability: 1.05

###

Tested on: DLD1
Assay: TCF/Wnt firefly luciferase reporter signal relative to plate median (fraction of plate median); higher = higher Wnt reporter signal
Details: 10 µM; treatment time 24 h; reporter: TCF4/Wnt
Counter-ions that a name gives are not always drawn.
ASSAY_METRIC: TCF/Wnt firefly luciferase reporter signal

COMPOUND: Oc1ccc(-c2nc(-c3ccc(F)cc3)c(-c3ccncc3)[nH]2)cc1
VALUE_MEASURED: 0.85
//
COMPOUND: C#Cc1cccc(Nc2ncnc3cc(OCCOC)c(OCCOC)cc23)c1 [Erlotinib HCl]
VALUE_MEASURED: 0.73
//
COMPOUND: OCCn1cc(-c2ccc3c(c2)CC/C3=N\O)c(-c2ccncc2)n1
VALUE_MEASURED: 1.45
//
COMPOUND: Cc1ncc(-c2ccnc(Nc3ccc(S(C)(=O)=O)cc3)n2)n1C(C)C
VALUE_MEASURED: 0.277
//
COMPOUND: Cc1cc(Nc2cc(CN3CCOCC3)c3nc(C)c(Cc4ccc(Cl)cc4F)n3n2)n[nH]1
VALUE_MEASURED: 1.17

###

System: DLD1
Experiment: TCF/Wnt firefly luciferase reporter signal relative to plate median (fraction of plate median); higher = higher Wnt reporter signal
Conditions: 5 µM; treatment time 24 h; reporter: 7TFP
Each record here notes measured TCF/Wnt firefly luciferase reporter signal.
ASSAY_METRIC: TCF/Wnt firefly luciferase reporter signal

MOLECULE: CCN(CC)CCNC(=O)COc1ccc(OC)cc1
ASSAY_SYSTEM: DLD1
VALUE_MEASURED: 1.09
--
MOLECULE: N=C(N)c1ccc(OCCCCCOc2ccc(C(=N)N)cc2)cc1
ASSAY_SYSTEM: DLD1
VALUE_MEASURED: 1.03
--
MOLECULE: O=C(NCO)c1cccnc1
ASSAY_SYSTEM: DLD1
VALUE_MEASURED: 1.02
--
MOLECULE: CC=CC(=O)N(CC)c1ccccc1C
ASSAY_SYSTEM: DLD1
VALUE_MEASURED: 0.953
--
MOLECULE: CC(C)=CCc1c(O)cc2oc(C)cc(=O)c2c1O
ASSAY_SYSTEM: DLD1
VALUE_MEASURED: 0.869
--
MOLECULE: CCCCCCCCCCCCCCCC(=O)OC[C@@H](NC(=O)C(Cl)Cl)[C@H](O)c1ccc([N+](=O)[O-])cc1
ASSAY_SYSTEM: DLD1
VALUE_MEASURED: 0.971
--
MOLECULE: CCC(=O)O[C@H]1CC[C@H]2[C@@H]3CCc4cc(O)ccc4[C@H]3CC[C@]12C
ASSAY_SYSTEM: DLD1
VALUE_MEASURED: 0.888
--
MOLECULE: COc1cccc2c(C)cc(=O)[nH]c12
ASSAY_SYSTEM: DLD1
VALUE_MEASURED: 1.05
--
MOLECULE: CCCCNC(=O)NS(=O)(=O)c1ccc(C)cc1
ASSAY_SYSTEM: DLD1
VALUE_MEASURED: 0.931
--
MOLECULE: O=c1c(O)c(-c2ccccc2)oc2cc(O)ccc12
ASSAY_SYSTEM: DLD1
VALUE_MEASURED: 1.01
--
MOLECULE: COc1cc(OC)c2c(=O)c(-c3ccc4c(c3)OCO4)coc2c1
ASSAY_SYSTEM: DLD1
VALUE_MEASURED: 1.02
--
MOLECULE: COc1c(-c2coc3cc4c(cc3c2=O)CC(OC(C)=O)C(C)(C)O4)ccc2c1C=CC(C)(C)O2 (configuration not stated)
ASSAY_SYSTEM: DLD1
VALUE_MEASURED: 1.01
--
MOLECULE: CC(C)(C)CC(C)(C)c1ccc(O)c(Cc2ccc(Cl)cc2Cl)c1
ASSAY_SYSTEM: DLD1
VALUE_MEASURED: 0.86
--
MOLECULE: CCCCCCCCCCCCCCCCCCOCC(O)CO (configuration not stated)
ASSAY_SYSTEM: DLD1
VALUE_MEASURED: 1.03
--
MOLECULE: COc1ccc(-c2cc(=O)c3c(O)c(OC)c(OC)c(OC)c3o2)cc1OC
ASSAY_SYSTEM: DLD1
VALUE_MEASURED: 0.964
--
MOLECULE: O=C(O)C1(C(=O)O)CCC1.[NH2-].[NH2-].[Pt+2]
ASSAY_SYSTEM: DLD1
VALUE_MEASURED: 1.15
--
MOLECULE: NS(=O)(=O)c1cc2c(cc1Cl)N=C(CSCc1ccccc1)NS2(=O)=O
ASSAY_SYSTEM: DLD1
VALUE_MEASURED: 0.861
--
MOLECULE: NC(=O)c1ccc([N+](=O)[O-])cc1Cl
ASSAY_SYSTEM: DLD1
VALUE_MEASURED: 0.894
--
MOLECULE: Nc1ncnc2c1ncn2[C@@H]1O[C@H](CO)[C@@H](O)[C@H]1O
ASSAY_SYSTEM: DLD1
VALUE_MEASURED: 1.07
--
MOLECULE: COC1=CC(=O)C[C@@H](C)[C@]12Oc1c(Cl)c(OC)cc(OC)c1C2=O
ASSAY_SYSTEM: DLD1
VALUE_MEASURED: 0.929
--
MOLECULE: CC[C@H](CC[C@@H](C)[C@H]1CC[C@H]2[C@@H]3CC=C4C[C@@H](O)CC[C@]4(C)[C@H]3CC[C@]12C)C(C)C [beta-SITOSTEROL]
ASSAY_SYSTEM: DLD1
VALUE_MEASURED: 0.872
--
MOLECULE: COC(=O)C[C@H]1C(C)(C)C(=O)[C@@H]2CC3=C(CC[C@]4(C)C3=CC(=O)O[C@H]4c3ccoc3)[C@@]1(C)C2=O
ASSAY_SYSTEM: DLD1
VALUE_MEASURED: 0.782

Attribution: the supplement of paper PMC6522484
